- TARGET: T1, human TROP2 protein (Sino Biological, #10428-H08H) (human, UniProt P09758 27-274)
- T1 construct: bought protein; also called human Trop2 protein antigen (His tag); not shown: His tag
- T1 sequence (looked up): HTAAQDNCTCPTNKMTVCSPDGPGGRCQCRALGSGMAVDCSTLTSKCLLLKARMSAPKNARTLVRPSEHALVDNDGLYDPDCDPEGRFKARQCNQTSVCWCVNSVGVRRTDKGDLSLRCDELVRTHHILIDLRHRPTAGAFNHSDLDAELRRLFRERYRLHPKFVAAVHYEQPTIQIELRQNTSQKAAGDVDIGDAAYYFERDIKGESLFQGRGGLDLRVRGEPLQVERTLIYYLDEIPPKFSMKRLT
- MEASUREMENT_NOTES: BLI, Octet RED96, AHC sensor
- Experimental: Specifically, a human TROP2 protein (Sino Biological, #10428-H08H) or a monkey Trop2 protein (Sino Biological, #90893-C08H) was diluted to 200 nM with a PBS buffer (pH 7.4) containing 0.1% (w/w) BSA and 0.02% (v/v) tween 20, and incubated with the AHC sensor respectively. […] The association and dissociation signals between the Trop2 antibody and the human Trop2 protein or monkey Trop2 protein were recorded by Octet Red 96 in real time. […]

{"BINDER": "PR001152 (antibody, human IgG1, kappa, V domains shown, fully human IgG1/kappa; also called antibody No. (15)) VH: QVQLVESGGAVVQPGRSLRLSCAASGFTFSHYGMHWVRQAPGKGLEWVAVIWYDGIKSYYVESVKGRFTISRDNSKNTLYLQMDRLRAEDTAVYYCARDGGFGESNYYGLDVWGQGTTVTVSS VL: DIQLTQSPSFLSASVGDRVTITCRASQGINSYLGWYQRKPGKAPKLLIYIASTLQSGVPSRFSGSGSGTEFTLTISSLQPEDFATYYCQQLNSYPYTFGQGTKLEIKR", "Response": 0.348}
{"BINDER": "PR001128 (antibody, human IgG1, kappa, V domains shown, fully human IgG1/kappa; also called antibody No. (1)) VH: QVQLQESGPGLVKPSGTLSLTCAVSGGSISSSNWWSWVRQPPGKGLEWIGEIFHSGTTYYNPSLKSRVTILVDKSKNQFSLKLSSVTAADTAVYYCARDNTKSWDHFDHWGQGTLVTVSS VL: EIVLTQSPATLSLSPGERATLSCRASQSVGSYLAWYQQKPGQAPSLLIYDASNRATGIPARFSGSGSGTDFTLTISSLEPEDFAVYYCQQRTNWYTFGQGTKLEIKR", "Response": 0.402}
{"BINDER": "PR001164 (antibody, human IgG1, kappa, V domains shown, fully human IgG1/kappa; also called antibody No. (25)) VH: QVQLQQSGPGLVKPSQTLSLTCAISGDSVSSTSAVWNWIRQSPSRGLEWLGRTCYRSKWYNDYAVSVKSRITITPDTSKNQFSLRLNPVTPEDTAVYYCARGDFRFDSWGQGTLVTVSS VL: DIQLTQSPSFLSASVGDRVTITCRASQGISSYLAWYQQKPGKAPKLLIYAASTLQSGVPSRFSGSGSGTEFTLTISSLQPEDFATYYCQQVKIYPLTFGGGTKVEIKR", "Response": 0.194}
{"BINDER": "PR001159 (antibody, human IgG1, kappa, V domains shown, fully human IgG1/kappa; also called antibody No. (21)) VH: QVQLVESGGGVVQPGRSLRLSCEASGFTFSHYGMHWVRQAPGKGLEWVAVIWYDGIKTNYVESVKGRFTISRDNSKNTLNLQMNRLRAEDTAVYYCARDGGFGESNYYGLDVWGQGTTVTVSS VL: DIQLTQSPSFLSASVGDRVTITCRASQGISSYLGWYQQKPGKAPKLLIYIASTLQSGVPSRFSGSGSGTEFTLTISSLQPEDFATYYCQQLNSYPYTFGQGTKLEIKR", "Response": 0.38}
{"BINDER": "PR001171 (antibody, human IgG1, kappa, V domains shown, fully human IgG1/kappa; also called antibody No. (30)) VH: QVQLVESGGGVVQPGRSLRLSCAASGFTFSHYGMHWVRQAPGKGLEWVAVIWYDGIKKNYVESVKGRFTISRDNSKNTLNLQMNRLRAEDTAVYYCARDGGFGESNYYGLDVWGQGTTVTVSS VL: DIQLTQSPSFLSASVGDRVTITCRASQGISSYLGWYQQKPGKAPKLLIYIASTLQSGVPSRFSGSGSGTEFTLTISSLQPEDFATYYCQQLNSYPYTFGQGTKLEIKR", "Response": 0.326}
{"BINDER": "PR001165 (antibody, human IgG1, kappa, V domains shown, fully human IgG1/kappa; also called antibody No. (26)) VH: QVQLVESGGGVVQPGRSLRLSCEASGFTFSHYGMHWVRQAPGKGLEWVAVIWYDGIKTYYVESVKGRFTISRDNSKNTLNLQMNRLRAEDTAVYYCARDGGFGESNYYGLDVWGQGTTVTVSS VL: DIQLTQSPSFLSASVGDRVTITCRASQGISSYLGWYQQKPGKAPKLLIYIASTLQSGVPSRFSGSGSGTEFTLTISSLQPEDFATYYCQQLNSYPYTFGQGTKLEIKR", "Response": 0.38}
{"BINDER": "PR001168 (antibody, human IgG1, kappa, V domains shown, fully human IgG1/kappa; also called antibody No. (28)) VH: QVQLVESGGGVVQPGRSLRLSCATSGFIFSSYGMHWVRQAPGKGLDWVAVIWYDGSNKYYADSVKGRFTISRDNSKNTLYLQMNSLRVEDTAVYYCARETSSWYVGYLQHWGQGTLVTVSS VL: EIVMTQSPATLSVSPGERVSLSCRASQSVNGNVAWYQQKPGQAPRLLIYAASTRATGIPARFSGSGSGTESTLTISSLQSEDCAVYYCQQYNNWPSTFGPGTKLEVTR", "Response": 0.333}
{"BINDER": "PR001153 (antibody, human IgG1, kappa, V domains shown, fully human IgG1/kappa; also called antibody No. (16)) VH: QVQLQESGPGLVKPSGTLSLTCAVSGGSISSSNWWSWVRQPPGKGLEWIGEIYHDGSTDYNPSLKSRVIISVDKSKNQFSLKVRSVTAADTAVYYCARDNWGFDYWGQGTLVTVSS VL: EIVLTQFPGTLSLSPGERATLSCRSSQSVSSSYLAWYQQKPGQAPRLLISGASSRATGIPDRFSGSGSGTDFTLTISRLEPEDFAVYYCQQYGSSPRTFGQGTKVEIKR", "Response": 0.381}
{"BINDER": "PR001150 (antibody, human IgG1, kappa, V domains shown, fully human IgG1/kappa; also called antibody No. (13)) VH: QVQLVESGGGVVQPEKSLRLSCAASGFTFSHYGMHWVRQVPGKGLEWVAVIWYDGIKRYYVESVKGRFTISRDNSKNTLYLQMNRLRAEDTAVYYCARDGGFGESNYYGLDVWGQGTTVTVSS VL: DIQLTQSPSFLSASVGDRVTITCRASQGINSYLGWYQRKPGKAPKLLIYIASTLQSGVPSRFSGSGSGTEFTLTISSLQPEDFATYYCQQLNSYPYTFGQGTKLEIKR", "Response": 0.382}
{"BINDER": "PR001170 (antibody, human IgG1, kappa, V domains shown, fully human IgG1/kappa; also called antibody No. (29)) VH: QVQLQESGPGLVKPSETLSLTCAVSGYSINSGYFWAWIRQPPGMGLEWIGSIYHSGRTHYNPSLKSRVIISLDTSKNQFSLKLRSVTAADSAVYYCAREGYASGSYYWGQGTLVTVSS VL: EIVMTQSPATLSVSPGERATLSCRSSQSVNSYLAWFQQKPGQAPRLLIYDSSTRATGIPARFSGSGSGTEFTLTISSLQSEDFAFYFCQQYENWPLTFGGGTKVEIKR", "Response": 0.368}
